# Test Target: T1, Anti-PSMA Fab (SEQ ID NOs: 19, 20)
# T1 construct: Biotinylated PSMA Fab captured on neutravidin coated plates in the phage ELISA; also called 006 PSMA Fab
# Assay Info: phage binding ELISA; Fab-coated wells pre-incubated with PSMA antigen as competitor, anti-M13-HRP detection;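 also: clonal phage supernatants screened, with reference wells given blocking buffer only (no PSMA antigen) before phage were added for a brief incubation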
Measured Property: Anti-PSMA Fab signal in the presence of PSMA

>>> measurement("PERWCIPVWMCESG (Peptide-180 library clone, tested as clonal phage supernatant) [Phage-2014]")
0.0731
>>> measurement("LEKWCIPAWMCEVF (Peptide-180 library clone, tested as clonal phage supernatant) [Phage-2013]")
0.0967
>>> measurement("MVKWCFPEWMCWTD (Peptide-180 library clone, tested as clonal phage supernatant) [Phage-2017]")
0.136
>>> measurement("GEKWCIPPWMCITN (Peptide-180 library clone, tested as clonal phage supernatant) [Phage-2012]")
0.0697
>>> measurement("IVKWCTPPWMCTIY (Peptide-180 library clone, tested as clonal phage supernatant) [Phage-2019]")
0.153
>>> measurement("LEKWCTPLWMCVGI (Peptide-180 library clone, tested as clonal phage supernatant) [Phage-2026]")
0.078
>>> measurement("QLNWCIPEWMCQGL (Peptide-180 library clone, tested as clonal phage supernatant) [Phage-2022]")
0.124
>>> measurement("VVQLCSPVWMCEGF (Peptide-180 library clone, tested as clonal phage supernatant) [Phage-2015]")
0.086
>>> measurement("PIRLCIPEWMCEMV (Peptide-180 library clone, tested as clonal phage supernatant) [Phage-2016]")
0.0575
>>> measurement("ELKRCTPSWMCEGI (Peptide-180 library clone, tested as clonal phage supernatant) [Phage-2025]")
0.059
>>> measurement("VIKLCSPPWMCIGL (Peptide-180 library clone, tested as clonal phage supernatant) [Phage-2020]")
0.0946
>>> measurement("ALMWCIPQWMCQDQ (Peptide-180 library clone, tested as clonal phage supernatant) [Phage-2023]")
0.102
>>> measurement("TEIWCIPPWMCDGQ (Peptide-180 library clone, tested as clonal phage supernatant) [Phage-2021]")
0.0686
>>> measurement("VQKWCIPAWMCDYV (Peptide-180 library clone, tested as clonal phage supernatant) [Phage-2024]")
0.0734
>>> measurement("LDKWCTPSWMCYGM (Peptide-180 library clone, tested as clonal phage supernatant) [Phage-2018]")
0.106
